FYI, the data here is from patent US4293694A.

Experiment: Acute toxicity
Conditions: rat, in vivo, po; rats, dd strain, 18 to 22 g, fasted 12 hours; read-out: LD50 (50% lethal dose), p.o.
quantity.measured: LD50 (mg/kg)
The answer is to be given in mg/kg; state only the numeric part.

Would you kindly share the measured LD50 for O=C(O)c1cn2c3c(cccc3c1=O)C1CCCCC12 (stereo not shown) ?
5000

Record request: LD50 value, item O=C(NN=Cc1ccc([N+](=O)[O-])o1)c1cn2c3c(cc(F)cc3c1=O)C1CCCCC12 (stereo not shown)
3000

Fill in the blank: the reported LD50 of CC(=O)Nc1ccc2c3c1c(=O)c(C(=O)O)cn3C1CCCCC21 (stereo not shown) is ____.
3500

Could you share which LD50 value was measured for O=C(O)c1cn2c3c(cc(F)cc3c1=O)C1CCCCC12 (stereo not shown) ?
5000

Find the recorded LD50 belonging to CC1CCN(CCOC(=O)c2cn3c4c(cc(F)cc4c2=O)C2CCCCC23)CC1 (stereo not shown) and report it.
2000

Which LD50 reading was recorded for the compound Cc1cc(C)c2c(=O)c(C(=O)O)cn3c2c1C1CCCCC13 (stereo not shown) ?
3000

Looking for the measured LD50 of COc1cc2c3c(c1)c(=O)c(C(=O)O)cn3C1CCCCC21 (stereo not shown) , can you help?
4000
